Catalogue of compounds with associated melting point

compound: Cc1nc2c3c(c(CO)cc2n1C)CCC(c1ccccc1)O3 (centres unmarked) [Example 17]
melting point: 279 to 281 °C
//
compound: CCOC(=O)c1cc2c(nc(C)n2C)c2c1CCC(c1ccccc1)N2 (centres unmarked) [Example 25]
melting point: 185 to 186 °C
//
compound: Cc1nc2c3c(c(C(=O)NCCO)cc2n1C)CCC(c1ccccc1)O3 (centres unmarked) [Example 5]
melting point: 228 to 229 °C
//
compound: CN(C)C(=O)c1cc2c(nc(C(F)(F)F)n2C)c2c1CCC(c1ccccc1)O2 (centres unmarked) [Example 14]
melting point: 223 to 225 °C

For reference, reported melting point for Cc1nc2c3c(c(C(=O)O)cc2n1C)CCC(c1ccccc1)N3 (centres unmarked) [Example 26] stands at 325 to 326 °C

So, Cc1nc2c3c(c(CO)cc2n1C)CCC(c1ccccc1)N3 (centres unmarked) [Example 31] ? Its melting point was 253 to 254 °C

melting point reported for this compound Cc1nc2c3c(c(C(=O)NCC(O)CO)cc2n1C)CCC(c1ccccc1)O3 (centres unmarked) [Example 21] : 268 to 270 °C

Record Cc1nc2c3c(c(C(=O)N(C)C)cc2n1C)CCC(c1ccccc1)N3 (centres unmarked) [Example 2] . Reported melting point: 167 to 170 °C

###

The reader will find reported Inhibition of acid secretion values listed item by item below.
test system: pentagastrin-stimulated acid secretion of the perfused rat stomach; assay: Testing of the secretion-inhibiting action on the perfused rat stomach; details: dose 1 μmol/kg i.d. (intraduodenal), perfused stomach of anesthetized female CD rat, in vivo

compound: Cc1nc2c3c(c(C(=O)N(C)C)cc2n1C)CCC(c1ccccc1)N3 (stereo not drawn)
Inhibition of acid secretion: >50%

Lab note: Cc1nc2c3c(c(C(=O)N(C)C)cc2n1C)CCC(c1ccccc1)O3 (stereo not drawn) gave Inhibition of acid secretion of >50%

Inhibition of acid secretion in this record for CNC(=O)c1cc2c(nc(C)n2C)c2c1CCC(c1ccccc1)O2 (stereo not drawn) : >50%

###

endpoint: melting point

Memo: CCCNC(=O)c1cc2c(nc(C)n2C)c2c1CCC(c1ccccc1)O2 (stereo not shown) [Example 19] , reported melting point: 273 °C

Quick note, melting point for Cc1nc2c3c(c(C(=O)N4CCOCC4)cc2n1C)CCC(c1ccccc1)O3 (stereo not shown) [Example 7] landed at 291 to 293 °C

// melting point value for Cc1nc2c3c(c(C(=O)O)cc2n1C)CCC(c1ccccc1)O3 (stereo not shown) [Example 16] : 323 to 326 °C

melting point reading for Cc1nc2c3c(c(C(=O)N4CC4)cc2n1C)CCC(c1ccccc1)O3 (stereo not shown) [Example 13] : 201 to 204 °C

Per the record, COCCOCc1cc2c(nc(C)n2C)c2c1CCC(c1ccccc1)O2.O=C(O)C(=O)O (stereo not shown) [Example 12] has melting point of 131 to 133 °C

Looking up Cc1nc2c3c(c(C(=O)NN4CC4)cc2n1C)CCC(c1ccccc1)N3 (stereo not shown) , I see its melting point listed as 192 to 193 °C

For this compound ( CNC(=O)c1cc2c(nc(C)n2C)c2c1CCC(c1ccccc1)N2 (stereo not shown) [Example 29] ), measured melting point is 259 °C

Given item Cc1nc2c3c(c(C(N)=O)cc2n1C)CCC(c1ccccc1)O3 (stereo not shown) [Example 3] , the value recorded as its melting point is 264 to 267 °C

Record CC(C)c1nc2c3c(c(C(=O)N(C)C)cc2n1C)CCC(c1ccccc1)O3 (stereo not shown) [Example 9] . Reported melting point: 179 to 180 °C

// sample COCc1cc2c(nc(C)n2C)c2c1CCC(c1ccccc1)O2.O=C(O)C(=O)O (stereo not shown) [Example 11] , its melting point was 204 to 205 °C

// sample CCc1nc2c3c(c(C(=O)N(C)C)c(-c4ccccc4)c2n1C)CCCO3 [Example 24] , its melting point was 195 to 197 °C

So for Cc1nc2c3c(ccc2n1C)CCC(c1ccccc1)O3 (stereo not shown) [Example 36] , the logged melting point turned out to be 161 to 164 °C

Record CN(C)C(=O)c1cc2c(nc(C3CC3)n2C)c2c1CCC(c1ccccc1)O2 (stereo not shown) [Example 10] , field melting point: 176 to 179 °C

The origin of these recorded values is patent US7307084B2.
